target.desc: HO-1 (rat spleen) (Rattus norvegicus, UniProt P06762)
Construct: Spleen microsomes were used as a source of HO-1; from tissue; host or cells: spleen microsomal fraction of adult male Sprague-Dawley rats
Sequence (P06762 1-289): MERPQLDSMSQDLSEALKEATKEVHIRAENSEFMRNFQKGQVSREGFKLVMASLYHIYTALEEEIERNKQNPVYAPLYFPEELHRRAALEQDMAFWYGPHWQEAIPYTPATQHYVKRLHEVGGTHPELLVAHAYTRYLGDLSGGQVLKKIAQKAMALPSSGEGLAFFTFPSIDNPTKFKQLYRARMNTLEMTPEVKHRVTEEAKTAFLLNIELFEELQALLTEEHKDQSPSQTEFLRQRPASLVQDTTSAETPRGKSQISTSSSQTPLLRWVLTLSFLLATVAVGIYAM
assay.method.text: HO enzymatic activity, rat spleen microsomal fraction (CO formation from methemalbumin)
Type: biochemical
details: IC50 HO-1 (rat spleen/μM), average ± SD of replicate experiments
Where a name gives a salt, the structure may show the parent alone.
In this section we review reported IC50 values for a set of compounds.
metric: IC50 (µM)

{"compound": "O=C(CCc1ccccc1)Cn1ccnc1[N+](=O)[O-] [QC-160, hydrochloride]", "censoring.sign": ">", "result": 100}
{"compound": "O=C(Cn1ccnc1)c1ccc([N+](=O)[O-])cc1 [QC-159, hydrochloride]", "censoring.sign": "=", "result": 2.5}
{"compound": "N#Cc1ncn(CC(=O)CCc2ccccc2)c1C#N [QC-154, hydrochloride]", "censoring.sign": ">", "result": 100}
{"compound": "Cn1c(NCCc2c[nH]cn2)nc2ccccc21 [QC-147, dihydrochloride]", "censoring.sign": ">", "result": 100}
{"compound": "O=C(CCn1ccnc1)c1ccccc1 [QC-242, hydrochloride]", "censoring.sign": "=", "result": 79}
{"compound": "O=C(Cn1ccnc1)c1ccc(-c2ccccc2)cc1 [QC-166, hydrochloride]", "censoring.sign": "=", "result": 2.1}
{"compound": "N#CSC[C@@H]1CO[C@@](CCc2ccc(Cl)cc2)(Cn2ccnc2)O1 [QC-197, hydrochloride]", "censoring.sign": "=", "result": 3}

The measurements presented in this section are drawn from patent US20120020915A1.
